# Test system: TK-10 renal
# TEST_DETAILS: NCI tumour cell line growth inhibition, 48 h
TGI values for the compounds below.

INSERT INTO measurements (compound, measured_metric, experimental_result) VALUES
  ('COC(=O)C(Cc1nc2ccc(Cl)cc2[nH]c1=O)C(=O)C(=O)Nc1ccccc1[N+](=O)[O-] (stereo not given)', 'TGI', '> 100 µM'),
  ('Cc1ccc(NC(=O)CC(=O)n2nc(C)c(N=Nc3ccc(S(=O)(=O)CCOS(=O)(=O)O)cc3)c2C)cc1', 'TGI', '> 100 µM'),
  ('CCOC(=O)C1(Cc2c[nH]c3ccccc23)C(O)CCCN1C(C)=O (stereo not given)', 'TGI', '> 100 µM'),
  ('Cn1c(=O)nc2n(-c3ccc(Cl)cc3Cl)c3ccccc3nc-2c1=O', 'TGI', '54.2 µM'),
  ('C=CCc1ccc(O)c(-c2cc(C3Oc4c(-c5cc(CC=C)ccc5O)cc(O)cc4[C@@H]3CO)ccc2O)c1 (stereo not given in full)', 'TGI', '> 100 µM'),
  ('Nc1ccc(S(=O)(=O)c2ccc(NC(=O)c3cccnc3)cc2)cc1', 'TGI', '> 100 µM'),
  ('CCc1cc2c(cc1CCCC(=O)O)CC1(Cc3ccc(C(=O)O)cc3C1)C2 (stereo not given)', 'TGI', '> 100 µM'),
  ('CN(C)C(=O)C1CCC(=C2C(=O)OC(C)(C)OC2=O)N1C (stereo not given)', 'TGI', '> 100 µM');

Prompt line: // map O=Cc1cc2c(o1)C(=O)c1ccccc1C2=O to recorded TGI (system: TK-10 renal)
Response line: 8.52 µM

Prompt line: // map CC1CC2(CC[C@@H]1O)OCCO2 (stereo not given in full) to recorded TGI (system: TK-10 renal)
Response line: > 100 µM
